- System: Respiratory syncytial virus
- Experiment: Antiviral activity against RSV B/18-002094 harboring eGFP infected in human HeLa cells assessed as reduction in virus replication measured after 3 days by laser microscopy
- Type: functional, organism-based
- Cond: B/18-002094, HeLa, 72 h
Measurement Label: EC50
Show the value, then the unit it is measured in.

CS(=O)(=O)N1CC2(C1)C(=O)N(Cc1nc3cc(Cl)ccc3n1CCCC(F)(F)F)c1ccccc12 yielded EC50 of 1.6 nM

---

- Tested on: Rattus norvegicus
- Experiment: Particle size for the 50th percentile of the cumulative volume distribution in Sprague-Dawley rat at 50 mg/kg, IM […]
- Format: ADME, organism-based
- Cond: in vivo
Could you label it Condition met if measured Median particle size (D50) is 4 um or higher, and Condition not met otherwise?

Exam item: For this compound, is measured Median particle size (D50) 4 um or higher? CS(=O)(=O)N1CC2(C1)C(=O)N(Cc1nc3cc(Cl)ccc3n1CCCC(F)(F)F)c1ccccc12
Marked response: Condition met

Exam item: For this compound, is measured Median particle size (D50) 4 um or higher? CC(C)NC(=O)N1CC2(C1)C(=O)N(Cc1nc3cc(Cl)ccc3n1CCCC#N)c1ccccc12
Marked response: Condition met

Exam item: For this compound, is measured Median particle size (D50) 4 um or higher? CC(C)(O)C(=O)N1CC2(C1)C(=O)N(Cc1nc3cc(Cl)ccc3n1CCCC(F)(F)F)c1ccccc12
Marked response: Condition not met

Exam item: For this compound, is measured Median particle size (D50) 4 um or higher? CC(C)C(=O)N1CC2(C1)C(=O)N(Cc1nc3cc(Cl)ccc3n1CCCCF)c1cnccc12
Marked response: Condition met

Exam item: For this compound, is measured Median particle size (D50) 4 um or higher? O=C1N(Cc2nc3cc(Cl)ccc3n2CCCC(F)(F)F)c2cnccc2C12CN(S(=O)(=O)C1CC1)C2
Marked response: Condition met

Exam item: For this compound, is measured Median particle size (D50) 4 um or higher? CC(C)NC(=O)N1CC2(C1)C(=O)N(Cc1nc3cc(Cl)ccc3n1CCCC(F)(F)F)c1cnccc12
Marked response: Condition met
